Biological target: HLA-A0201 (Homo sapiens, UniProt P04439, D140Y/D185E/D98H/E176V/E277Q/G131W/G231S/I119V/I121R/I166T/I218V/L300P/L318F/N151K/N90K/P208A/P217A/Q86G/Q94H/R138H/R169H/T345S)
Construct: expressed in transfected cells; host or cells: HMy2.CIR
Test: cell-based
Assay type: binding
Details: HLA-A0201 HMy2.CIR cells; competitor peptide 15μM; 24 hours; flow cytometry; read-out: 15μM Inhibition (%)
Description: HMy2.CIR cell line was purchased (Zhongqiao xinzhou Biotech, Shanghai) and maintained in complete IMDM medium with 10% FCS and 1% penicillin/streptomycin. […] The plate was centrifuged at 600 rpm for 5 min at room temperature (RT). […] Finally, cells were resuspended with 150 μL PBS and analyzed with flow cytometry. […] Binding affinity of unlabeled peptide with the indicated HLA-A molecule is assessed by IC50.
Residues, ends and D or L forms follow the SMILES beside them.
recorded_endpoint: inhibition at 15 µM (%)
Write down the numeric answer in % and omit the unit.

* CC(C)C[C@H](N)C(=O)N[C@@H](Cc1ccc(O)cc1)C(=O)N[C@@H](CO)C(=O)N[C@@H](CO)C(=O)N[C@H](C(=O)N[C@H](C(=O)N1CCC[C@H]1C(=O)N[C@@H](CS)C(=O)N[C@@H](Cc1ccccc1)C(=O)O)C(C)C)[C@@H](C)O [Epitope P55] (H-LYSSTVPCF-OH; N-terminus and C-terminus assumed) | 11.6
* CC[C@H](C)[C@H](NC(=O)[C@H](CC(C)C)NC(=O)[C@@H](N)CCCCN)C(=O)NCC(=O)N[C@H](C(=O)N[C@@H](Cc1c[nH]cn1)C(=O)N[C@@H](CC(N)=O)C(=O)N[C@@H](CO)C(=O)N[C@H](C(=O)O)C(C)C)[C@@H](C)O [Epitope P33] (H-KLIGTHNSV-OH; N-terminus and C-terminus assumed) | 50

Shifting focus to the compound that follows.
For the compound shown here, CC[C@H](C)[C@H](NC(=O)[C@H](Cc1c[nH]c2ccccc12)NC(=O)[C@@H](NC(=O)CNC(=O)[C@H](Cc1ccccc1)NC(=O)[C@H](CO)NC(=O)[C@@H](NC(=O)[C@@H](N)CC(C)C)C(C)C)C(C)C)C(=O)N[C@@H](CCCNC(=N)N)C(=O)O [Epitope P4] , give the reported inhibition at 15 µM.
11.9

----------
Target: HLA-A0201 (Homo sapiens, UniProt P04439, D140Y/D185E/D98H/E176V/E277Q/G131W/G231S/I119V/I121R/I166T/I218V/L300P/L318F/N151K/N90K/P208A/P217A/Q86G/Q94H/R138H/R169H/T345S)
Construct: expressed in transfected cells; host or cells: HMy2.CIR
Assay: cell-based
Assay type: binding
Settings: HLA-A0201 HMy2.CIR cells; competitor peptide 5μM; 24 hours; flow cytometry; read-out: 5μM Inhibition (%)
Procedure: HMy2.CIR cell line was purchased (Zhongqiao xinzhou Biotech, Shanghai) and maintained in complete IMDM medium with 10% FCS and 1% penicillin/streptomycin. […] The plate was centrifuged at 600 rpm for 5 min at room temperature (RT). […] Finally, cells were resuspended with 150 μL PBS and analyzed with flow cytometry. […] Binding affinity of unlabeled peptide with the indicated HLA-A molecule is assessed by IC50.
Residues, ends and D or L forms follow the SMILES beside them.
recorded_endpoint: inhibition at 5 µM (%)
Write down the numeric answer in % and omit the unit.

- CC(C)C[C@H](NC(=O)[C@@H](N)Cc1ccccc1)C(=O)N1CCC[C@H]1C(=O)N[C@@H](CO)C(=O)N[C@@H](CC(=O)O)C(=O)N[C@@H](Cc1ccccc1)C(=O)N[C@@H](Cc1ccccc1)C(=O)N1CCC[C@H]1C(=O)N[C@@H](CO)C(=O)O [Epitope P67] (H-FLPSDFFPS-OH; N-terminus and C-terminus assumed): 91.5
- CC(C)C[C@H](NC(=O)[C@H](CO)NC(=O)[C@H](CC(C)C)NC(=O)[C@@H](N)Cc1c[nH]c2ccccc12)C(=O)N[C@@H](CC(C)C)C(=O)N[C@H](C(=O)N1CCC[C@H]1C(=O)N[C@@H](Cc1ccccc1)C(=O)N[C@H](C(=O)O)C(C)C)C(C)C [Epitope P7]: 83
- CC[C@H](C)[C@H](NC(=O)CNC(=O)[C@H](CC(C)C)NC(=O)[C@H](CO)NC(=O)[C@H](CC(C)C)NC(=O)[C@H](CC(C)C)NC(=O)[C@@H](N)Cc1ccccc1)C(=O)N[C@@H](Cc1c[nH]cn1)C(=O)N[C@@H](CC(C)C)C(=O)O [Epitope P10]: 81.7

For the molecule shown here, CC[C@H](C)[C@H](NC(=O)[C@H](CC(C)C)NC(=O)[C@@H](N)CCCCN)C(=O)NCC(=O)N[C@H](C(=O)N[C@@H](CC(=O)O)C(=O)N[C@@H](CC(N)=O)C(=O)N[C@@H](CO)C(=O)N[C@H](C(=O)O)C(C)C)[C@@H](C)O [Epitope P34] (H-KLIGTDNSV-OH; N-terminus and C-terminus assumed) , give the reported inhibition at 5 µM.
50

Another molecule to look at: CC(C)C[C@H](NC(=O)[C@H](C)NC(=O)[C@H](CO)NC(=O)[C@H](C)NC(=O)[C@@H](NC(=O)[C@H](CC(=O)O)NC(=O)[C@H](CC(C)C)NC(=O)[C@@H](N)CC(C)C)[C@@H](C)O)C(=O)N[C@@H](Cc1ccc(O)cc1)C(=O)O [Epitope P111]
10.6
